Molecular target: human OX1 receptor (Homo sapiens, UniProt O43613)
Sequence (O43613 1-425): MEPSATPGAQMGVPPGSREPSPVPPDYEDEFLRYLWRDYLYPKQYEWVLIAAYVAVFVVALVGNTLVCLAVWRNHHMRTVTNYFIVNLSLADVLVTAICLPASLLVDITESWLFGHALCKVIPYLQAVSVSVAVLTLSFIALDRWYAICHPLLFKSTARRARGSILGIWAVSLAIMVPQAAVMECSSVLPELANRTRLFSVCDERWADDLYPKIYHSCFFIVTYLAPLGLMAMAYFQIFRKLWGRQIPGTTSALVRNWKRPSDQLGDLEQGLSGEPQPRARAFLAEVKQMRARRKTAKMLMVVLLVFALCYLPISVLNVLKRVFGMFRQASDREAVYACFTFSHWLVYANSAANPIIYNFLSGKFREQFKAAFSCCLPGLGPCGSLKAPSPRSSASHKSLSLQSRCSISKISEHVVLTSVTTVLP
Test: Calcium mobilization Ke assay, OX1
Assay type: cell-based
Conditions: ratio of Ke values OX2/OX1
The reader will find reported OX2/OX1 values listed item by item below.
measured-parameter: OX2/OX1

{"columns": ["compound", "measured"],
 "data": [
  ["COc1cc(CC2c3cc(OS(C)(=O)=O)c(OC)cc3CCN2CC(=O)NCc2ccccc2)ccc1OCc1ccccc1 (stereo not shown) [Compound 25a]", ">232"],
  ["COc1cc2c(cc1OCC(F)(F)F)C(Cc1ccncc1)N(CC(=O)NCc1ccccc1)CC2 (stereo not shown) [Compound 19c]", ">5.4"],
  ["COc1cc2c(cc1N)C(Cc1ccc(OC)c(OC)c1)N(CC(=O)NCc1ccccc1)CC2 (stereo not shown)", ">20"],
  ["COc1cc2c(cc1NC(C)=O)C(Cc1ccc(OC)c(OC)c1)N(CC(=O)NCc1ccccc1)CC2 (stereo not shown) [Compound 34c]", ">86"],
  ["COc1ccc(CC2c3cc(N(C)C)c(OC)cc3CCN2CC(=O)NCc2ccccc2)cc1N(C)C (stereo not shown)", 113],
  ["CCCOc1cc2c(cc1OC)CCN(CC(=O)NCc1ccccc1)C2Cc1ccc(OCc2ccccn2)c(OC)c1 (stereo not shown) [Compound 12g]", ">104"],
  ["CCCOc1cc2c(cc1OC)CCN(CC(=O)NCc1ccccc1)C2Cc1ccc(C)c(C)c1 (stereo not shown) [Compound 12b]", ">347"],
  ["COc1cc2c(cc1NCc1ccccc1)C(Cc1ccc(OC)c(OC)c1)N(CC(=O)NCc1ccccc1)CC2 (stereo not shown) [Compound 34b]", ">28"],
  ["COc1ccc(CC2c3cc(N(C)C)c(OC)cc3CCN2CC(=O)NCc2ccccc2)cc1OC (stereo not shown) [Compound 34a]", ">321"],
  ["COc1cc2c(cc1NS(C)(=O)=O)C(Cc1ccc(OC)c(OC)c1)N(CC(=O)NCc1ccccc1)CC2 (stereo not shown) [Compound 34d]", ">78"],
  ["CCCCOc1ccc(CC2c3cc(OS(C)(=O)=O)c(OC)cc3CCN2CC(=O)NCc2ccccc2)cc1OC (stereo not shown) [Compound 25b]", 229],
  ["CCCC(=O)Nc1cc2c(cc1OC)CCN(CC(=O)NCc1ccccc1)C2Cc1ccc(OC)c(OC)c1 (stereo not shown) [Compound 34e]", ">14.5"],
  ["CCCOc1cc2c(cc1OC)CCN(CC(=O)NCc1ccccc1)C2Cc1ccc(C(C)C)cc1 (stereo not shown) [Compound 12c]", ">70.9"]
]}
